- Experimental System: T1, B-RCAL (BÜHLMANN recombinant calprotectin; His6-linker-S100A9-linker-S100A8)
- T1 chain: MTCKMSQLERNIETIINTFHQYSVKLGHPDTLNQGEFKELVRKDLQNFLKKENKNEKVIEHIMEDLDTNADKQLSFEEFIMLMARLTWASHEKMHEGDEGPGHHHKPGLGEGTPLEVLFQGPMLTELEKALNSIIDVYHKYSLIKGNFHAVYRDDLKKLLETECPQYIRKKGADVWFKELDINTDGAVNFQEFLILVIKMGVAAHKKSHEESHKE
- Test Method Notes: fluorescence polarisation
- Condition Description: chain shown with the change; in the presence of calcium ions; Cys1-Cys2 chemically bridged; three independent measurements
Measured Attribute: Kd (nM)
Write the answer as a number in nM, unit excluded.

Asked: Given the binder RCPECVAFPMFQSHWYSG [peptide 3 isomer 1 (dumbbell shaped, double-bridged) C13S; C17S] , what is its reported Kd?
Given back: 16.9
